The entries below are paired with their reported ratio to parent.
B1: wild type NSP3 (non-structural protein 3) of simian species A rotavirus strain RRV [simian rotavirus A strain RRV] / itself (parent complex)
chain: MESTQQMASSIINSSFEAAVVAATSTLELMGIQYDYNEVYTRVKSKFDLVMDDSGVKNNLIGKAITIDQALNGKFSSAIRNRNWMTDSRTVAKLDEDVNKLRIMLSSKGIDQKMRVLNACFSVKRIPGKSSSIVKCTRLMKDKLERGEVEVDDSFVEEKMEVDTIDWKSRYEQLEKRFESLKHRVNEKYNHWVLKARKVNENMNSLQNVISQQQAHINELQMYNNKLERDLQSKIGSVVSSIEWYLRSMELSDDVKSDIEQQLNSIDQLNPVNAIDDFESILRNLISDYDRLFIMFKGLLQQCNYTYTYE

# Variants of: B1
# TEST_DESCRIPTION: non-dissociating Western blot (WB-ND) densitometry; parent: 1; read off a plot

Some variants with recorded ratio to parent:
>>> print(df.to_string())
    mutant_label  reading
0  chain 1 Y189A     ~1.8
1  chain 1 R170E    ~0.17
2  chain 1 K168E    ~0.32

Could you now consider this next variant?
chain 1 R184E, chain 1 K188E yielded ratio to parent of ~0.13
